test system: SK-MEL-5 melanoma; experiment: NCI-60 one-dose screen, 48 h (100 = growth as untreated, 0 = no growth, -100 = all killed); conditions: 10 µM
About 83,000 compounds went through this panel and 20% of them were active in at least one assay; those are over-represented in the sample as a whole.
Label scheme for growth: lower than 80% is not met, 80% and above is met.

>  <COMPOUND>
IC(I)I

>  <STUDY_SYSTEM>
SK-MEL-5 melanoma

>  <ASSIGNED_LABEL>
met

$$$$

// inclusive: growth at least 80%? input: COc1ccc(C(=O)CC(CC(=O)c2ccc(OC)cc2)c2c(C)nn(-c3ccccc3)c2Cl)cc1 met

// inclusive: growth at least 80%? input: COc1ccc(C(c2ccc(OCCN(C)C)cc2)c2cc3ccccc3c3ccccc23)cc1 (stereo unspecified) not met

// inclusive: growth at least 80%? input: COc1cc2c(Nc3ccc(-c4ccc(N)cc4)cc3)ncnc2c(OC)c1OC not met

// inclusive: growth at least 80%? input: Oc1cccc(-c2nc3sccn3c2-c2ccncn2)c1 met

// inclusive: growth at least 80%? input: O=C1Cc2cc(CCN3CCN(c4nsc5ccccc45)CC3)c(Cl)cc2N1 met

// inclusive: growth at least 80%? input: Clc1nc2ccccc2cc1Cn1nnc(Cc2ccccc2)n1 not met

// inclusive: growth at least 80%? input: O=C(COc1cccc(/C=C2\CSc3ccccc3C2=O)c1)c1ccc(Cl)cc1 not met

// inclusive: growth at least 80%? input: C/C=C/CSC(C)(C)C(=O)NC met

* * *

test system: T-47D breast; experiment: NCI-60 one-dose screen, 48 h; settings: 10 µM
This is part of a sample that, as a whole, favours compounds with a hit. Of some 83,000 tested, about 20% had one in any assay. The source made the active and inactive calls. How the source made its calls: active means growth percent below 10; inactive means the rest.
Respond with a class label; see class 1 = active, class 0 = inactive

>  <MOLECULE>
Cc1cn(-c2cc(F)cc(NC(=O)c3ccc(C)c(Nc4nccc(-c5cccnc5)n4)c3)c2)cn1

>  <STUDY_SYSTEM>
T-47D breast

>  <ASSIGNED_LABEL>
class 1

$$$$
>  <MOLECULE>
O=C(CCc1nnc2sc(-c3cc(O)c(O)c(O)c3)nn12)c1nc2ccccc2[nH]1

>  <STUDY_SYSTEM>
T-47D breast

>  <ASSIGNED_LABEL>
class 0

$$$$
>  <MOLECULE>
O=C1CC(=O)N(C(=O)c2nn(-c3ccc(Cl)cc3)cc2O)N1

>  <STUDY_SYSTEM>
T-47D breast

>  <ASSIGNED_LABEL>
class 0

$$$$
>  <MOLECULE>
O=C(Nc1ccccc1)Nc1ncnc2c1ncn2-c1ccccc1

>  <STUDY_SYSTEM>
T-47D breast

>  <ASSIGNED_LABEL>
class 0

$$$$

What is the recorded call for this molecule in the test? O=S(=O)(Oc1ccc(-c2ccc3sccc3c2)cc1)c1ccccc1 class 0

What is the recorded call for this molecule in the test? Clc1nc2ccccc2cc1Cn1nnc(Cc2ccccc2)n1 class 0

What is the recorded call for this molecule in the test? C/C(=N\O)c1ccc(NC(=O)CSc2nnc(-c3ccccc3)n2-c2ccccc2)cc1 class 0

What is the recorded call for this molecule in the test? Nc1cc(Br)c(-c2nn3c(CCC(=O)c4nc5ccccc5[nH]4)nnc3s2)c(Br)c1 class 0

What is the recorded call for this molecule in the test? Clc1ccc2c(c1)C(N1CCNCC1)=Nc1ccccc1O2 class 0

* * *

System: CAKI-1 renal
Experiment: NCI-60 one-dose screen, 48 h (100 = growth as untreated, 0 = no growth, -100 = all killed)
Conditions: 10 µM
Method: Growth inhibition of the CAKI-1 human tumor cell line is measured as a screen for anti-cancer activity. Cells are grown in 96 well plates and exposed to the test compound for 48 hours. Compounds are tested at a single concentration, which is 10^-5 M for most compounds. The reported endpoint is percent growth (GI% or GIPRCNT), where numbers from 0 - 100% represent growth inhibition, and numbers from -100% - 0 represent cell death. For example, a value of 40 represents 60% growth inhibition. […]
Compounds without any hit were thinned out: in the full panel of roughly 83,000, 20% have a hit.
// reported growth per item
All answers are understood in %, so give the number only.

Recorded growth, per entry:
>  <COMPOUND>
COc1cc(-c2csc(NC(=O)Nc3ccc(Cl)c(C(F)(F)F)c3)n2)cc(OC)c1OC

>  <ENDPOINT_NAME>
growth

>  <UNITS>
%

>  <EXPERIMENTAL_RESULT>
6.78

$$$$
>  <COMPOUND>
Brc1ccc2c(c1)-c1ccccc1C1=NCCN12

>  <ENDPOINT_NAME>
growth

>  <UNITS>
%

>  <EXPERIMENTAL_RESULT>
-5.84

$$$$
>  <COMPOUND>
CCCc1nc(C(C)(C)O)c(C(=O)O)n1Cc1ccc(-c2ccccc2-c2nn[nH]n2)cc1

>  <ENDPOINT_NAME>
growth

>  <UNITS>
%

>  <EXPERIMENTAL_RESULT>
92.6

$$$$
>  <COMPOUND>
O=C(CCCSc1nc(-c2ccc(Cl)cc2)cc(-c2ccc(Cl)cc2)n1)NO

>  <ENDPOINT_NAME>
growth

>  <UNITS>
%

>  <EXPERIMENTAL_RESULT>
2.08

$$$$
>  <COMPOUND>
CC(=O)OC1C=CC(OC(C)=O)O1 (configuration not stated)

>  <ENDPOINT_NAME>
growth

>  <UNITS>
%

>  <EXPERIMENTAL_RESULT>
89

$$$$
>  <COMPOUND>
CC(C)(C)OC(=O)N1CCc2c(sc3ncnc(N/N=C/c4cccc(Br)c4)c23)C1

>  <ENDPOINT_NAME>
growth

>  <UNITS>
%

>  <EXPERIMENTAL_RESULT>
31.4

$$$$
>  <COMPOUND>
COc1ccc2c(c1)CC=C1[C@@H]2CC[C@]2(C)C(=O)/C(=N/O)C[C@@H]12

>  <ENDPOINT_NAME>
growth

>  <UNITS>
%

>  <EXPERIMENTAL_RESULT>
6.9

$$$$
>  <COMPOUND>
CCC1NC(=O)c2cc(S(N)(=O)=O)c(Cl)cc2N1 (configuration not stated)

>  <ENDPOINT_NAME>
growth

>  <UNITS>
%

>  <EXPERIMENTAL_RESULT>
104

$$$$

COc1cc(/C=C2\CCCC3=C2NC(N)=NC3c2cc(OC)c(OC)c(OC)c2)cc(OC)c1OC (configuration not stated) yielded growth of -4.06

O=C(N/N=C/c1c(Cl)cccc1Cl)c1ccccc1Nc1cccc(C(F)(F)F)c1 yielded growth of 95.5

COc1ccc(C(=O)CSc2nc(-c3cc(OC)ccc3OC)cc(-c3ccc(OC)cc3)c2C#N)cc1 yielded growth of 96.3

COc1ccccc1-n1c(-c2sc(NC(C)=O)nc2C)n[nH]c1=S yielded growth of 81

CCn1c(SCc2ccc(C)cc2)nnc1-c1nn(-c2ccc(Cl)cc2Cl)c(-c2ccc(Cl)cc2)c1C yielded growth of 40.5

COc1cccc2ccc(CC(O)(c3ccccc3)c3ccccc3)nc12 yielded growth of 87.2

* * *

Tested on: U251 CNS
Assay: NCI-60 one-dose screen, 48 h
Details: 10 µM
Protocol: Growth inhibition of the U251 human tumor cell line is measured as a screen for anti-cancer activity. Cells are grown in 96 well plates and exposed to the test compound for 48 hours. Compounds are tested at a single concentration, which is 10^-5 M for most compounds. The reported endpoint is percent growth (GI% or GIPRCNT), where numbers from 0 - 100% represent growth inhibition, and numbers from -100% - 0 represent cell death. For example, a value of 40 represents 60% growth inhibition. […]
This is part of a sample that, as a whole, favours compounds with a hit. Of some 83,000 tested, about 20% had one in any assay. Activity calls are given as the source filed them. Rule for the calls: active = growth percent below 10; inactive = the rest.
Respond with a class label; see true (active), false (inactive)

Previously resolved entries follow.
>  <COMPOUND>
CNC(=O)c1cc(Oc2ccc3c(c2)sc2nc(-c4ccc(NC(=O)Nc5ccc(Cl)c(C(F)(F)F)c5)cc4)cn23)ccn1

>  <ASSIGNED_LABEL>
false

$$$$
>  <COMPOUND>
O=C1CC(=O)N(C(=O)c2nn(-c3ccc(Cl)cc3)cc2O)N1

>  <ASSIGNED_LABEL>
false

$$$$

What is the recorded call for this compound in the test? COc1ccc(Cl)cc1Nc1nc(C(F)(F)F)ccc1C(=O)N/N=C/c1ccc(Cl)cc1 false

What is the recorded call for this compound in the test? COc1ccccc1/C=N\N/C(N)=N\N=C\c1ccccc1OC true

What is the recorded call for this compound in the test? Cc1cc(C(C#N)c2ccc(Cl)cc2)c(Cl)cc1NC(=O)c1cc(I)cc(I)c1O (stereo unspecified) false

* * *

System: NCI-H23 lung
Assay: NCI-60 one-dose screen, 48 h
Conditions: 10 µM
Description: Growth inhibition of the NCI-H23 human Non-Small Cell Lung tumor cell line is measured as a screen for anti-cancer activity. Cells are grown in 96 well plates and exposed to the test compound for 48 hours. Compounds are tested at a single concentration, which is 10^-5 M for most compounds. The reported endpoint is percent growth (GI% or GIPRCNT), where numbers from 0 - 100% represent growth inhibition, and numbers from -100% - 0 represent cell death. […]
This is part of a sample that, as a whole, favours compounds with a hit. Of some 83,000 tested, about 20% had one in any assay. Calls of active or inactive are those of the source. The calls were made as follows: active = growth percent below 10; inactive = the rest.
Respond with a class label; see True = active, False = inactive

>  <COMPOUND>
O=C1/C(=C/c2cccc(F)c2)Cc2ccccc21

>  <ASSIGNED_LABEL>
False

$$$$

What is the recorded call for this compound in the test? COc1cc(C2C(C#N)=C(N)Oc3cc(O)ccc32)cc(OC)c1OC (stereo not given) False

What is the recorded call for this compound in the test? C[C@@H](C[C@H](CCO)c1ccccc1)c1ccc2ccccc2c1 True

What is the recorded call for this compound in the test? COc1cc(/C=C/c2cc(/C=C/c3ccc(O)c(OC)c3)n(C(=O)Nc3ccc(C)cc3)n2)ccc1O True

What is the recorded call for this compound in the test? CNC(=O)c1cn(C2CC2)c2cc(N3CCN(C(=O)c4cc(OC)c(OC)c(OC)c4)CC3)c(F)cc2c1=O False

What is the recorded call for this compound in the test? OC(CCN1CCCC1)(c1ccccc1)C1CCCCC1 (stereo not given) False

What is the recorded call for this compound in the test? C(=N\Nc1ncnc2sc3c(c12)CCNC3)/c1cccc2ccccc12 False

What is the recorded call for this compound in the test? NC1=NC(c2ccc(Cl)cc2)C2=C(N1)/C(=C/c1ccc(Cl)cc1)CCC2 (stereo not given) False

What is the recorded call for this compound in the test? Cc1c(O)c(=O)ccn1C1CCC(CC2CCC(n3ccc(=O)c(O)c3C)CC2)CC1 (stereo not given) False

What is the recorded call for this compound in the test? Cc1ccc(S(=O)(=O)N(C)CCCCCC(=O)O)cc1 False
